Please go through the items and note down their melting point.

## Input Given c1ccc(B2OC3(CCCCC3)C3(CCCCC3)O2)c(CN2CCNCCNCCNCCNCC2)c1 [17c] , state its recorded melting point.
## Output 78 to 80 °C

## Input Given c1cc(B2OC3(CCCCC3)C3(CCCCC3)O2)ccc1CN1CCNCCNCCNCC1 [16a] , state its recorded melting point.
## Output 129 to 131 °C

## Input Given c1cc(CN2CCNCCNCCNCC2)cc(B2OC3(CCCCC3)C3(CCCCC3)O2)c1 [16b] , state its recorded melting point.
## Output 46 to 48 °C

## Input Given O=C(O)C(F)(F)F.OB(O)c1ccc(CN2CCNCCNCCNCCNCC2)cc1 [14a] , state its recorded melting point.
## Output 136 to 137 °C

## Input Given c1cc(B2OC3(CCCCC3)C3(CCCCC3)O2)ccc1CN1CCNCCNCCNCCNCC1 [17a] , state its recorded melting point.
## Output 43 to 44 °C

## Input Given O=C(O)C(F)(F)F.OB(O)c1ccc(CN2CCNCCNCCNCC2)cc1 [13a] , state its recorded melting point.
## Output 172 to 175 °C

## Input Given O=C(O)C(F)(F)F.OB(O)c1ccc(CN2CCNCCNCC2)cc1 [12a] , state its recorded melting point.
## Output 138 to 141 °C

## Input Given c1cc(B2OC3(CCCCC3)C3(CCCCC3)O2)ccc1CN1CCNCCNCC1 [15a] , state its recorded melting point.
## Output 65 to 67 °C

## Input Given c1cc(CN2CCNCCNCC2)cc(B2OC3(CCCCC3)C3(CCCCC3)O2)c1 [15b] , state its recorded melting point.
## Output 57 to 58 °C
